# TEST TARGET: T1, human PD-1 protein (hPD-1) on cell surface of 293T-PD-1 cells (human, UniProt Q15116 25-287)
# T1 construct: Human PD-1 expressed in HEK293T cells, either by lentiviral transduction or by the pCMV6-ENTRY PDCD1 cDNA RC210364; also called PDCD1 (RC210364) in HEK293T cells
# T1 sequence (Q15116 25-287 limits assumed): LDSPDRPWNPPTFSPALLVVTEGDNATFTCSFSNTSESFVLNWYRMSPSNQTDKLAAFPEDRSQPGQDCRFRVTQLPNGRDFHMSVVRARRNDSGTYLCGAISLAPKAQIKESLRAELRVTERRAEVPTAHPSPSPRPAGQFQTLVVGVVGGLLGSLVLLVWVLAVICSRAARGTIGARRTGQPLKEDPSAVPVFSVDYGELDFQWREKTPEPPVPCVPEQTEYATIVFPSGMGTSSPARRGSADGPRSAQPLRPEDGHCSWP
# ASSAY NOTES: flow cytometry on 293T-PD-1 cells, 4 C for 60 min, secondary APC-anti-Hu IgG Fc; y axis hPD-1%
EXPERIMENTAL ENDPOINT: EC50 (read off the curve)

In plain terms, h11 anti-PD-1 antibody (antibody, V domains shown, Humanized antibody derived from F02, detected with anti-human IgG Fc; also called hl 1) VH: QVQLVQSGAEVKKPGASVKVSCKASGYTFTNYYMYWVRQAPGQGLEWIGGINPSNGGTNFNEKFKNKATMTVDKSTSTAYMELSSLRSEDTAVYYCTRRDYNYDGGFDYWGQGTLVTVSS VL: DIVLTQSPATLSLSPGERATLSCRASKSVSTSGFNYMHWYQQKPGQAPRLLIFLASNLASGVPARFSGSGSGTDFTLTISSLEPEDFAVYYCQHGRELPLTFGQGTKLEI has a documented EC50 (read off the curve) of ~0.07 µg/mL

Noted for Ab5 anti-PD-1 antibody (antibody, V domains shown, Humanized antibody, detected with anti-human IgG Fc) VH: QVQLQQSGAEVKKPGSSVKVSCKASGYTFTNYYLYWVRQAPGQGLEWIGGINPSNGGTNFNEKFRGRVTITADESSTTAYMELSSLRSEDTAFYFCTRRDYNYDGGFDYWGQGTTVTVSS VL: DIVMTQSPSSLSASVGDRVTITCRASKSVSTSGFNYMHWYQQTPGKAPKLLIYLASNLDSGVPARFSGSGSGTDFTFTISSLQEEDIATYYCFHGRELPLTFGQGTKLQITR : its EC50 (read off the curve) reads ~0.5 µg/mL

Field EC50 (read off the curve) (entry Ab2 anti-PD-1 antibody (antibody, V domains shown, Humanized antibody, detected with anti-human IgG Fc) VH: QVQLQQSGAEVKKPGSSVKVSCKASGYTFTNYYLYWVRQAPGQGLEWIGGINPSNGGTNFNEKFRGRVTITADESSTTAYMELSSLRSEDTAFYFCTRRDYNYDGGFDYWGQGTTVTVSS VL: DIQMTQSPSSLSASVGDRVTITCRASKSVSTSGFNYMHWYQQTPGKAPKLLIYLASNLDSGVPSRFSGSGSGTDFTFTISSLQPEDIATYYCFHGRELPLTFGQGTKLQITR ) reads ~0.4 µg/mL

Notebook: Ab4 anti-PD-1 antibody (antibody, V domains shown, Humanized antibody, detected with anti-human IgG Fc) VH: QVQLQQSGAEVKKPGSSVKVSCKASGYTFTNYYLYWVRQAPGQGLEWIGGINPSNGGTNFNEKFRGRVTITADESSTTAYMELSSLRSEDTAFYFCTRRDYNYDGGFDYWGQGTTVTVSS VL: DIQMTQSPSSLSASVGDRVTITCRASKSVSTSGFNYMHWYQQTPGKAPKLLIYLASNLDSGVPARFSGSGSGTDFTFTISSLQEEDIATYYCFHGRELPLTFGQGTKLQITR , EC50 (read off the curve) read as ~3 µg/mL

Entry under test: Ab8 anti-PD-1 antibody (antibody, V domains shown, Humanized antibody, detected with anti-human IgG Fc) VH: EVQLQESGAEVKKPGSSVKVSCKASGYTFTNYYLYWVRQAPGQGLEWMGGINPSNGGTNFNEKFRGRVTITADESTSTAYMELSSLRSEDTAVYYCARRDYNYDGGFDYWGQGTTVTVSS VL: DIVMTQSPDSLAVSLGERATINCRASKSVSTSGFNYMHWYQQKPGQPPKLLIYLASNLDSGVPDRFSGSGSGTDFTLTIRPLQAEDVAVYYCQHGRELPLTFGQGTKLEIK . Its EC50 (read off the curve) was ~0.1 µg/mL

Form field EC50 (read off the curve), entry Ab7 anti-PD-1 antibody (antibody, V domains shown, Humanized antibody, detected with anti-human IgG Fc) VH: QVQLQQSGAEVKKPGSSVKVSCRASGYTFTNYYLYWVRQAPGQGLEWIGGINPSNGGTNFNEKFRGRVTITADESSTTAYMELSSLRSEDTAFYFCTRRDYNYDGGFDYWGQGTTVTVSS VL: DIVMTQSPSSLSASVGDRVTITCRASKSVSTSGFNYMHWYQQTPGKAPKLLIYLASNLDSGVPARFSGSGSGTDFTFTISSLQEEDIATYYCFHGRELPLTFGQGTKLQITR : ~0.3 µg/mL
